- assay remarks: in vitro
- condition description: human, hela cells, % viability
observation type: viability at 28.5 h, 10 µM (%)
Write the number in % without appending the unit.

Consider the reported viability at 28.5 h, 10 µM for these molecules:
Quickly give me recorded viability at 28.5 h, 10 µM for "CCCn1c(SCC(=O)N(C)Cc2ccc(OCC)cc2)n[nH]c1=O" 90

Quickly give me recorded viability at 28.5 h, 10 µM for "O=C(N[C@@H](Cn1cc(F)c(=O)[nH]c1=O)C(=O)O)C1CCCCC1" 89.2

Quickly give me recorded viability at 28.5 h, 10 µM for "CN1CCOc2cc(S(=O)(=O)Nc3nnn[nH]3)ccc21" 99.1

Quickly give me recorded viability at 28.5 h, 10 µM for NCCN(Cc1cccc(Cl)c1)C(=O)NC(c1ccccc1)c1ccccc1 [CBK046203C] 90.8

Continuing:
Quickly give me recorded viability at 28.5 h, 10 µM for "Cc1ccc(S(=O)(=O)NC(=O)N(Cc2ccccc2)Cc2ccco2)cc1" 93

Quickly give me recorded viability at 28.5 h, 10 µM for "Cc1cc(=O)[nH]c(SCc2nc3ccccn3c2Br)n1" 121

Quickly give me recorded viability at 28.5 h, 10 µM for CCN1CCC2(CC1)Nc1cc(Cl)c(S(N)(=O)=O)cc1S(=O)(=O)N2 [CBK010418C] 97.7

Quickly give me recorded viability at 28.5 h, 10 µM for "Cc1cc(S)c2cc(Br)ccc2n1" 80.5

Quickly give me recorded viability at 28.5 h, 10 µM for CN(CC(=O)NCc1ccccc1OC1CCNC1)C(=O)c1ccccc1 (stereo not drawn) [CBK028298T] 96.9

Quickly give me recorded viability at 28.5 h, 10 µM for CCOc1ccc(C(N)CC(=O)O)c2ccccc12 (stereo not drawn) 89.1

Quickly give me recorded viability at 28.5 h, 10 µM for O=C(C[n+]1ccccc1)c1ccccc1Cl [CBK016283B] 112

Quickly give me recorded viability at 28.5 h, 10 µM for "COc1ccc2cc(COC(=O)c3cnc(C)cn3)c(Cl)nc2c1" 106

Quickly give me recorded viability at 28.5 h, 10 µM for "NC(=O)CN1CC2(CCN(Cc3ccc(Cl)c(Cl)c3)CC2)c2ccccc21" 109

Quickly give me recorded viability at 28.5 h, 10 µM for "COc1cccc([C@H]2CN(C(=O)c3ccccc3)[C@@H]3CCN(Cc4ccsc4)C[C@H]23)c1" 104

Quickly give me recorded viability at 28.5 h, 10 µM for "COc1ccc(C(=O)N(C)Cc2cnn(C)c2)cc1Br" 84.8

Quickly give me recorded viability at 28.5 h, 10 µM for "Cc1csc2c(C3CCN(C(=O)c4cnn(C)c4)CC3)nc(C)n12" 89.7

====

- assay remarks: in vitro
- condition description: human, hela cells, % viability
Form field: viability at 28.5 h, 10 µM (one value per entry).
Write the number in % without appending the unit.

Consider the reported viability at 28.5 h, 10 µM for these compounds:
Quickly give me recorded viability at 28.5 h, 10 µM for COc1ccc(CCNC(=O)CC2Sc3ccc(C(F)(F)F)cc3NC2=O)cc1OC (centres unmarked) 91.7

Quickly give me recorded viability at 28.5 h, 10 µM for "COc1cc(Nc2cc(C)nc3ncnn23)ccc1N1CCCC1=O" 102

Quickly give me recorded viability at 28.5 h, 10 µM for Cc1noc(C)c1CN1CCC(C(O)c2ccccc2)CC1 (centres unmarked) 93.9

Quickly give me recorded viability at 28.5 h, 10 µM for "CC(C)CNc1cc(Cl)c(S(=O)(=O)NCC(C)C)cc1C(=O)O" 93.5

Here's the next entry for you.
Quickly give me recorded viability at 28.5 h, 10 µM for "COc1ccc(-c2nc(NC(=O)c3cnccn3)cnc2-c2ccc(F)cc2)cc1" 104

====

Form field: viability at 28.5 h, 10 µM (one value per entry).
- assay remarks: in vitro
- condition description: human, hela cells, % viability
Please state the value followed by its unit.

Quickly give me recorded viability at 28.5 h, 10 µM for CCN(Cc1ccccc1)[C@@H](CO)Cc1ccc(OC)cc1 [CBK073856T] 89.6%

Quickly give me recorded viability at 28.5 h, 10 µM for O=C(O)CCSc1nc(-c2ccccc2)c(-c2ccccc2)[nH]1 [CBK264228] 109%

====

- assay remarks: in vitro
- condition description: human, hela cells, % viability
observation type: viability at 28.5 h, 10 µM (%)
Write the number in % without appending the unit.

Consider the reported viability at 28.5 h, 10 µM for these compounds:
Quickly give me recorded viability at 28.5 h, 10 µM for O=C(C1CCOCC1)N1CCCC(c2cc3cccnc3[nH]2)C1 (stereo not drawn) 109

Quickly give me recorded viability at 28.5 h, 10 µM for CCN(CC)Cc1cc(C(C)(C)C)oc1C(=O)O [CBK266013C] 110

Quickly give me recorded viability at 28.5 h, 10 µM for "CC(C)Oc1ncccc1OCc1ccccc1" 124

Quickly give me recorded viability at 28.5 h, 10 µM for "Cc1cccc(-c2ccc(CC3(C(=O)NC(C)C)CCN(C(=O)C(C)C)CC3)cc2)c1" 99.8

Quickly give me recorded viability at 28.5 h, 10 µM for "Sc1nnc(COc2ccccc2)n1/N=C/c1ccc(-c2ccccc2)cc1" 117

Quickly give me recorded viability at 28.5 h, 10 µM for "Cc1[nH]c2c(C)ccc(C)c2c1CC(=O)N1[C@@H](c2ccccc2F)C[C@@H]2NC(=O)CCC[C@H]21" 76.3

Quickly give me recorded viability at 28.5 h, 10 µM for "CCc1nn(CC(=O)N(CC)CC)c(=O)c2cc3ccsc3n12" 88.2

Quickly give me recorded viability at 28.5 h, 10 µM for O=C(Nc1ccccn1)C1CCCN1c1nc(O)cc(C(F)(F)F)n1 (stereo not drawn) 91

Continuing:
Quickly give me recorded viability at 28.5 h, 10 µM for "CC1CCN(S(=O)(=O)c2ccc(Cl)c(C(=O)Nc3ccc(C(=O)O)cc3)c2)CC1" 111

====

- assay remarks: in vitro
- condition description: human, hela cells, % viability
Form field: viability at 28.5 h, 10 µM (one value per entry).
Write the number in % without appending the unit.

Quickly give me recorded viability at 28.5 h, 10 µM for Cc1cc(C)nc(N2CCC(c3cc(CCOc4ccc(C(F)(F)F)cc4)[nH]n3)C2)n1 (stereo not drawn) [CBK286073] 93.5

Quickly give me recorded viability at 28.5 h, 10 µM for O=C(OCCCc1cccnc1)c1cc(=O)[nH]c2ccccc12 [CBK295631] 99.7

Quickly give me recorded viability at 28.5 h, 10 µM for CN(C)CCNC(=O)c1cccc(-c2cnc(N)c(N3CCN(C)CC3)n2)c1 [CBK063393] 95

Quickly give me recorded viability at 28.5 h, 10 µM for COC(=O)c1sccc1N1C(=O)CSCC1=O [CBK021934] 103

Quickly give me recorded viability at 28.5 h, 10 µM for O=C(O)C1CC=CCC1C(=O)NCc1ccc(N2CCCC2=O)cc1 (stereo not drawn) [CBK270081] 79.7

Continuing:
Quickly give me recorded viability at 28.5 h, 10 µM for CN(C)CCn1c(=O)oc2ccc(NC(=O)C3CCCO3)cc21 (stereo not drawn) [CBK304913] 93.9

Quickly give me recorded viability at 28.5 h, 10 µM for CCc1cnc(CNC(=O)NCc2nc3cc(C)ccc3n2C)s1 [CBK306261] 98.9

Quickly give me recorded viability at 28.5 h, 10 µM for COc1ccccc1N1CCN(C(=O)N(CCN)CCC(C)c2ccccc2)CC1 (stereo not drawn) [CBK002137C] 88.7

Quickly give me recorded viability at 28.5 h, 10 µM for Cc1ccc(CNC(=O)Cn2nnc(-c3ccc(CN4CCCC(C(F)(F)F)C4)cc3)n2)cc1 (stereo not drawn) [CBK144562C] 109

====

- assay remarks: in vitro
- Set-up: Viability of infected HeLa host cells, resazurin conversion, bulk resorufin fluorescence relative to DMSO
- condition description: human, hela cells; bulk resorufin, mean of 3
Form field: viability at 28.5 h, 0.00125 µM (one value per entry).
Write the number in % without appending the unit.

Quickly give me recorded viability at 28.5 h, 0.00125 µM for O=C(CC1SC(Nc2ccc(O)cc2)=NC1=O)c1ccccc1 (centres unmarked) [c13e] 92.7

Here's the next entry for you.
Quickly give me recorded viability at 28.5 h, 0.00125 µM for CC(Cc1nc(-c2nccn2C)cs1)n1cc(Cl)cn1 (centres unmarked) [c14e] 110

====

- assay remarks: in vitro
- condition description: human, hela cells, % viability
observation type: viability at 28.5 h, 10 µM (%)
Write the number in % without appending the unit.

Consider the reported viability at 28.5 h, 10 µM for these compounds:
Quickly give me recorded viability at 28.5 h, 10 µM for "CC(C)NS(=O)(=O)c1ccc(NS(=O)(=O)c2cc(C(=O)O)ccc2Cl)cc1" 99.5

Quickly give me recorded viability at 28.5 h, 10 µM for "O=C(Nc1ccc(S(=O)(=O)Nc2nccs2)cc1)c1cc(-c2cccnc2)nc2ccc(Cl)cc12" 105

Quickly give me recorded viability at 28.5 h, 10 µM for "Cc1cc(-c2cncc(NCCc3c[nH]c4ccccc34)n2)cc(C)c1O" 101

Quickly give me recorded viability at 28.5 h, 10 µM for "CC(C)CCNC(=O)N1CCNC(=O)C1" 98.3

Continuing:
Quickly give me recorded viability at 28.5 h, 10 µM for "Cn1nc(C2CCCCC2)cc1[C@H]1CN2CC[C@H]1C[C@@H]2CNC(=O)c1ccco1" 95.3

Cited source: paper PMC12040169
